All values here come from ChEMBL document CHEMBL4152283.

target-desc: Protein smoothened (Homo sapiens, UniProt Q99835)
Sequence (Q99835 whole entry): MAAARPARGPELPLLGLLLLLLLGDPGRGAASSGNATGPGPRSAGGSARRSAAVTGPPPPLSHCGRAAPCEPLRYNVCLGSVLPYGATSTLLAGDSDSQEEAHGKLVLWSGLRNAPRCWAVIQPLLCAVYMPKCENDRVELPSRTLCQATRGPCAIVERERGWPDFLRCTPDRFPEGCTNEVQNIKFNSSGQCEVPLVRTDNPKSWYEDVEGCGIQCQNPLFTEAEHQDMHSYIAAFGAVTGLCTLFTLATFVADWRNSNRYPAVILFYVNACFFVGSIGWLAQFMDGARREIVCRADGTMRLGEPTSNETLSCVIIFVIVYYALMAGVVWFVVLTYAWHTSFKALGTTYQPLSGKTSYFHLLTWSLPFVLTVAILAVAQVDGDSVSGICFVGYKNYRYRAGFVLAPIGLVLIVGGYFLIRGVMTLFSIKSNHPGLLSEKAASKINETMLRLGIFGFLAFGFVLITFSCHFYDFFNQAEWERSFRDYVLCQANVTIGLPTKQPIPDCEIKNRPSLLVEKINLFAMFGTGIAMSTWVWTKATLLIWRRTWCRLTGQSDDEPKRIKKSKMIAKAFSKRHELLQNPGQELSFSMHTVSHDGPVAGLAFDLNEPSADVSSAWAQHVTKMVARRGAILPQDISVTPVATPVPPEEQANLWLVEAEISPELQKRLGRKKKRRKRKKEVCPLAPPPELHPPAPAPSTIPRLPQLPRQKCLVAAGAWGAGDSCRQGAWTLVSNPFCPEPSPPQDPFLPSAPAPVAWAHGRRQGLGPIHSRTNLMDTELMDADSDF
assay: Antagonist activity at Smo receptor (unknown origin)
value-type: IC50

# smiles-repr, value-type, measured-result
rows = [
    ("COc1cc(C(=O)NC(=N)Nc2cccc(NC(=O)c3ccc(-c4ccccc4)cc3)c2)cc(OC)c1OC", "IC50", "0.01 µM"),
]

###

target-desc: Protein smoothened (Mus musculus, UniProt P56726)
Sequence (P56726 whole entry): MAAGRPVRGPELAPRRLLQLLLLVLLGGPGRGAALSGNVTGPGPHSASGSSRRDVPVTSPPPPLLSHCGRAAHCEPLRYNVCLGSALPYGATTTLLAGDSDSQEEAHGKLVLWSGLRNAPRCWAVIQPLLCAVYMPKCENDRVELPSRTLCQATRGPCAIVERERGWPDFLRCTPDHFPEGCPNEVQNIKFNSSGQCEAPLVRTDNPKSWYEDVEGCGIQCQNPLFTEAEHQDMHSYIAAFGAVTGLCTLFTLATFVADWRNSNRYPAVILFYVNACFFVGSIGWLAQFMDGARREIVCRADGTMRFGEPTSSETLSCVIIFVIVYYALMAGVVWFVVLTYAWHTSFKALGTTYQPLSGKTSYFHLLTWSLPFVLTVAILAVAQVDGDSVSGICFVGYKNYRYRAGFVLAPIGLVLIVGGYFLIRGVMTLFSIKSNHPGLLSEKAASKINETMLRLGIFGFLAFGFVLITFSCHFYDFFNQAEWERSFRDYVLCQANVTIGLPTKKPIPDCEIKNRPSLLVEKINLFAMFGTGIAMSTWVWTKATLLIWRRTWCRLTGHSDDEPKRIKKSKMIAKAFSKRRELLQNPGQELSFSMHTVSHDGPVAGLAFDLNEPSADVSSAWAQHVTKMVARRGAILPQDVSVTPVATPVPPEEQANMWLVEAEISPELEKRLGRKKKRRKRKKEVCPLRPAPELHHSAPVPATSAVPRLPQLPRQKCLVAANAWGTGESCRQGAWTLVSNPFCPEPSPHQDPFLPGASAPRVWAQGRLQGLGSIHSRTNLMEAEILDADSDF
assay: Antagonist activity at Smo receptor in mouse NIH/3T3 cells harboring GRE-Luc assessed as inhibition of SAG-induced Hh signaling pathway co-incubated with SAG measured after 48 hrs by luciferase reporter gene assay

# molecule, inequality-sign, IC50 (nM)
records = [
    ("Cc1ccc(NCc2cccn2-c2nnc(N3CCC(C(=O)NC4CCCCC4C)CC3)s2)cn1 (centres undefined)", "=", 240),
    ("COc1ccc2[nH]cc(CCNC(=O)c3ccccc3NC(=O)c3nsc4ccccc34)c2c1", ">", 10000),
    ("Cc1ccc(NC(=O)CSc2nc3ccc(NC(=O)c4ccccc4Cl)cc3s2)cc1Cl", ">", 10000),
    ("COc1cc(F)ccc1S(=O)(=O)NCCNc1nc(-c2ccc(F)cc2)nc2ccccc12", ">", 10000),
    ("O=C(CSc1nnc(CNC(=O)c2cccs2)n1-c1ccccc1)Nc1nc2ccccc2s1", ">", 10000),
    ("Cc1ccc(NCc2cccn2-c2nnc(N3CCC(C(=O)NC4CCCCC4)CC3)s2)cc1", "=", 660),
    ("Cc1ccc(NCc2cccn2-c2nnc(N3CCC(C(=O)NC4CCCCC4C)CC3)s2)cc1 (centres undefined)", "=", 47),
    ("Cc1ccc(NCc2cccn2-c2nnc(N3CCC(C(=O)NC(C)C)CC3)s2)cc1", "=", 1200),
    ("Cc1oc(-c2cccc(Cl)c2)nc1CN1CCC(C(=O)NC2CCCc3ccccc32)CC1 (centres undefined)", "=", 950),
    ("CC1Cc2ccccc2N1C(=O)c1ccc(=O)n(CCC(=O)N2CCN(c3ccccc3)CC2)n1 (centres undefined)", "=", 3000),
    ("Cc1c(C(=O)NC2CCCCC2)sc2ncn(CC(=O)Nc3cccc(C(F)(F)F)c3)c(=O)c12", ">", 10000),
    ("Cc1ccc(NCc2cccn2-c2nnc(N3CCC(C(=O)NCC(C)C)CC3)s2)cc1", "=", 1100),
    ("Cc1ccc(NCc2cccn2-c2nnc(N3CCC(C(=O)NC4CCCC4)CC3)s2)cc1", "=", 530),
    ("Cc1ccc(-c2cc3c(N4CCC(C(=O)NC(C)c5ccccc5)CC4)nccn3n2)cc1C (centres undefined)", "=", 4600),
    ("Cc1cccc(CNC(=O)Cc2cccc(N(Cc3ccccc3)C(=O)c3ccc(C#N)cc3)c2)c1", ">", 10000),
    ("O=C1CC(NC2CCN(c3ccc(C(F)(F)F)cn3)CC2)C(=O)N1c1ccc(F)cc1 (centres undefined)", ">", 10000),
    ("CC(C)c1ccc(NC(=O)c2cc(S(=O)(=O)N3CCN(c4ccccc4F)CC3)ccc2F)cc1", ">", 10000),
    ("COc1cccc2c1OC1(C)CC2NC(=O)N1c1cccc(C(=O)N2CCN(c3ccccc3F)CC2)c1 (centres undefined)", ">", 10000),
    ("COc1ccc(-n2nc(C(=O)NCC(=O)Nc3nc4ccccc4s3)c3ccccc3c2=O)cc1", ">", 10000),
]

###

target-desc: Protein smoothened (Mus musculus)
assay: Antagonist activity at Smo receptor in mouse NIH/3T3 cells harboring GRE-Luc assessed as inhibition of SAG-induced Hh signaling pathway co-incubated with SAG measured after 48 hrs by luciferase reporter gene assay
The label True is reserved for IC50 strictly under 4 µM; False covers values equal to or above it.

# compound, target-desc, classification
records = [
    ("Cc1ccc(NCc2cccn2-c2nnc(N3CCC(C(=O)NC4CC4)CC3)s2)cc1", "Protein smoothened (Mus musculus)", "False"),
    ("O=C(Nc1ccc(N2CCN(Cc3ccccc3O)CC2)nc1)c1ccccc1C(F)(F)F", "Protein smoothened (Mus musculus)", "True"),
    ("Cc1ccc(NCc2cccn2-c2nnc(N3CCC(C(=O)NCC(C)(C)O)CC3)s2)cc1", "Protein smoothened (Mus musculus)", "False"),
    ("CCC(Sc1nnc2c(=O)n(-c3ccc(C)c(C)c3)ccn12)C(=O)Nc1ccccc1C (centres undefined)", "Protein smoothened (Mus musculus)", "False"),
    ("CCNC(=O)C1CCN(c2nnc(-n3cccc3CNc3ccc(C)cc3)s2)CC1", "Protein smoothened (Mus musculus)", "False"),
    ("Cc1ccc(NCc2cccn2-c2nnc(N3CCC(C(=O)NCC4CC4)CC3)s2)cc1", "Protein smoothened (Mus musculus)", "True"),
    ("CC1CCN(C(C)CNC(=O)c2ccc3c(c2)NC(=O)C(CS(=O)(=O)Cc2ccc(F)cc2Cl)N3)CC1 (centres undefined)", "Protein smoothened (Mus musculus)", "False"),
    ("COc1ccc(Cl)cc1NC(=O)c1ccc(-n2nc(OCc3cccc(F)c3)ccc2=O)cc1", "Protein smoothened (Mus musculus)", "False"),
    ("Cc1ccc(NCc2cccn2-c2nnc(N3CCC(C(=O)N4CCC(O)C4)CC3)s2)cc1 (centres undefined)", "Protein smoothened (Mus musculus)", "False"),
]
